Molecular target: MrgA1 (Mus musculus, UniProt Q91WW5)
Construct: expressed in transfected cells
Sequence (Q91WW5 1-304): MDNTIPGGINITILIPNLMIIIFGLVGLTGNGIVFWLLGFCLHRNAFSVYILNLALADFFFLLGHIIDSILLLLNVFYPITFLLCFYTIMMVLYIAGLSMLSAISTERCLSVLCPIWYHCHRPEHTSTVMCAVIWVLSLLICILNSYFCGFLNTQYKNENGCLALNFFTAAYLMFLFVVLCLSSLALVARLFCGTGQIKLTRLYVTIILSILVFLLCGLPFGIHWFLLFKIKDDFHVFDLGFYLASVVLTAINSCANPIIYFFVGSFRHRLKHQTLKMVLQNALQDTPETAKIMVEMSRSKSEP
Experiment: calcium-mobilization assay (FLEXstation, Fura-2/AM) in HEK-MrgA1 cells
Assay type: cell-based
Where no end group is shown, it is not given here.
measured_metric: pEC50
Answers are plain numbers, as −log10 of the molar value.

Record summary for YGGFMRF-NH2 [Met-ENK-RFamide] : reported pEC50 = 5.28

----------
Molecular target: MrgA1 (Mus musculus, UniProt Q91WW5)
Construct: expressed in transfected cells
Assay: calcium-mobilization assay (FLEXstation, Fura-2/AM) in HEK-MrgA1 cells
Format: cell-based
Conditions: Table 1; HEK-MrgA1 cells, FLEXstation assay; means ± SEM, triplicate; Inactive = no activation detected at concentrations up to 10 mM; read-out: EC50 MrgA1
Where no end group is shown, it is not given here.
measured_metric: EC50 (µM)
Give bare numbers, in µM.

Record summary for VGRPEWWMDYQKRY-NH2 [BAM-15-amide] : reported EC50 = 8.77

----------
Biological target: MrgA1 (Mus musculus, UniProt Q91WW5)
Construct: expressed in transfected cells
Assay: calcium-mobilization assay (FLEXstation, Fura-2/AM) in HEK-MrgA1 cells
Assay type: cell-based
Conditions: Table 1; HEK-MrgA1 cells, FLEXstation assay; means ± SEM, triplicate; Inactive = no activation detected at concentrations up to 10 mM

compound | EC50 MrgA1
CC(C)C[C@H](NC(=O)CNC(=O)[C@H](Cc1ccccc1)NC(=O)[C@H](CO)NC(=O)[C@H](CC(N)=O)NC(=O)[C@H](Cc1c[nH]c2ccccc12)NC(=O)[C@H](CC(N)=O)NC(=O)[C@@H](N)Cc1ccc(O)cc1)C(=O)N[C@@H](CCCNC(=N)N)C(=O)N[C@@H](Cc1ccccc1)C(N)=O [Kiss(112-121)] | Inactive
CSCC[C@H](NC(=O)[C@@H](NC(=O)[C@@H](N)Cc1ccc(O)cc1)C(C)C)C(=O)NCC(=O)N[C@@H](Cc1c[nH]cn1)C(=O)N[C@@H](Cc1ccccc1)C(=O)N[C@@H](CCCNC(=N)N)C(=O)N[C@@H](Cc1c[nH]c2ccccc12)C(=O)N[C@@H](CC(=O)O)C(=O)N[C@@H](CCCNC(=N)N)C(=O)N[C@@H](Cc1ccccc1)C(N)=O [γ1-MSH] | Inactive

----------
Target: MrgC11 (Mus musculus, UniProt Q8CIP3)
Construct: A full-length MrgC11 cDNA was cloned from the newborn DRG cDNA library; expressed in transfected cells
Sequence (Q8CIP3 1-322): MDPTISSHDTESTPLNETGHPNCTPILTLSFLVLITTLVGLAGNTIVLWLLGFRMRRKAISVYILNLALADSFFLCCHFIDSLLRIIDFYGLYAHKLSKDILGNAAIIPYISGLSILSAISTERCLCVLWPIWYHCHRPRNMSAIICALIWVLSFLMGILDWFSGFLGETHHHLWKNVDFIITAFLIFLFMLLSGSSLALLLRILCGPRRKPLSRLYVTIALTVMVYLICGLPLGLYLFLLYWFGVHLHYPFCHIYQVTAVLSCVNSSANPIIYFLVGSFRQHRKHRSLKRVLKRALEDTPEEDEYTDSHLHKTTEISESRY
Assay: calcium-mobilization assay (FLEXstation, Fura-2/AM) in HEK-MrgC11 cells
Format: cell-based
Conditions: Table 2; chirally modified FMRFa peptides, HEK-MrgC11 cells; mean ± SEM, triplicate; read-out: EC50 MrgC11
Field: EC50. Provide a value for each of the compounds that follow.
Respond with a number, then the unit of measure.

The following compounds have reported results that may help.
structure | EC50
N=C(N)NCCC[C@H](N)C(=O)N[C@@H](Cc1ccccc1)C(=O)O | 632 nM
CSCC[C@@H](NC(=O)[C@@H](N)Cc1ccccc1)C(=O)N[C@@H](CCCNC(=N)N)C(=O)N[C@@H](Cc1ccccc1)C(N)=O | 11 nM

Let us move to another entry and its EC50.
Item "CSCC[C@H](NC(=O)[C@H](N)Cc1ccccc1)C(=O)N[C@@H](CCCNC(=N)N)C(=O)N[C@@H](Cc1ccccc1)C(N)=O" was tested on MrgC11 (Mus musculus, UniProt Q8CIP3); the reported EC50 is 108 nM

Ref: patent US20040121410A1
